Test system: MDA-MB-231 (human breast cancer)
protocolNotes: MTT cytotoxicity assay, MDA-MB-231
Type: cell-based
measurementConditions: Homo sapiens, MDA-MB-231 cells, 50% cell growth inhibition after 72 h of drug exposure
# reported IC50; entries follow

| compound | IC50 (µM) |
| --- | --- |
| C[C@H]1[C@@H](O)O[C@@H]2O[C@@]3(C)CC[C@H]4[C@H](C)CC[C@@H]1[C@@]24OO3 [DHA, dihydroartemisinin] | 9.8 |
| C[C@@H]1CC[C@H]2[C@@H](C)C(OCCOc3ccc(/C=C/S(=O)(=O)Nc4ccccc4Cl)cc3)O[C@@H]3O[C@@]4(C)CC[C@@H]1[C@]32OO4 (stereo partly shown) | 0.93 |
| C[C@@H]1CC[C@H]2[C@@H](C)C(OCCNC(=O)c3ccc(COc4ccc(/C=C/S(=O)(=O)Nc5cccc(Cl)c5)cc4)cc3)O[C@@H]3O[C@@]4(C)CC[C@@H]1[C@]32OO4 (stereo partly shown) | 2.23 |
| COc1cccc(NS(=O)(=O)/C=C/c2ccc(OCc3ccc(C(=O)NCCOC4O[C@@H]5O[C@@]6(C)CC[C@H]7[C@H](C)CC[C@@H]([C@H]4C)[C@@]57OO6)cc3)cc2)c1 (stereo partly shown) | 8.89 |

---

Tested on: HT-29 (human colon cancer)
protocolNotes: MTT cytotoxicity assay, HT-29
Type: cell-based
measurementConditions: HT-29 cells, 50% cell growth inhibition after 72 h of drug exposure, read-out: IC50(μM) HT29

| molecule | target | IC50 / µM |
| --- | --- | --- |
| N.N.[Cl][Pt][Cl] [Cisplatin, cisplatin, reference compound] | HT-29 (human colon cancer) | 10.3 |

---

Test system: WI-38 (human fetal lung fibroblasts)
protocolNotes: MTT cytotoxicity assay, normal cell line WI-38
Type: cell-based
measurementConditions: Homo sapiens, normal WI-38 cells, 50% cell growth inhibition after 72 h of drug exposure, read-out: IC50(μM) WI38
measurementName: IC50

| compound | target | result |
| --- | --- | --- |
| C[C@@H]1CC[C@H]2[C@@H](C)C(OCCNC(=O)c3ccc(COc4ccc(/C=C/S(=O)(=O)Nc5ccccc5Cl)cc4)cc3)O[C@@H]3O[C@@]4(C)CC[C@@H]1[C@]32OO4 (stereo partly shown) [Compound 6g] | WI-38 (human fetal lung fibroblasts) | 27.2 µM |
| C[C@@H]1CC[C@H]2[C@@H](C)C(OCCOc3ccc(/C=C/S(=O)(=O)Nc4ccccc4Cl)cc3)O[C@@H]3O[C@@]4(C)CC[C@@H]1[C@]32OO4 (stereo partly shown) [Compound 3g] | WI-38 (human fetal lung fibroblasts) | 16.3 µM |
| Cc1ccc(F)c(NS(=O)(=O)/C=C/c2ccc(OCc3ccc(C(=O)NCCOC4O[C@@H]5O[C@@]6(C)CC[C@H]7[C@H](C)CC[C@@H]([C@H]4C)[C@@]57OO6)cc3)cc2)c1 (stereo partly shown) [Compound 6d] | WI-38 (human fetal lung fibroblasts) | 19.3 µM |
| C[C@@H]1CC[C@H]2[C@@H](C)C(OCCNC(=O)c3ccc(COc4ccc(/C=C/S(=O)(=O)Nc5ccc(F)c(C(F)(F)F)c5)cc4)cc3)O[C@@H]3O[C@@]4(C)CC[C@@H]1[C@]32OO4 (stereo partly shown) [Compound 6j] | WI-38 (human fetal lung fibroblasts) | 30.4 µM |
